Source of measurements: paper PMC6321475

TARGET SYSTEM: acetylcholinesterase (AChE) (Homo sapiens)
Sequence (P22303 32-614): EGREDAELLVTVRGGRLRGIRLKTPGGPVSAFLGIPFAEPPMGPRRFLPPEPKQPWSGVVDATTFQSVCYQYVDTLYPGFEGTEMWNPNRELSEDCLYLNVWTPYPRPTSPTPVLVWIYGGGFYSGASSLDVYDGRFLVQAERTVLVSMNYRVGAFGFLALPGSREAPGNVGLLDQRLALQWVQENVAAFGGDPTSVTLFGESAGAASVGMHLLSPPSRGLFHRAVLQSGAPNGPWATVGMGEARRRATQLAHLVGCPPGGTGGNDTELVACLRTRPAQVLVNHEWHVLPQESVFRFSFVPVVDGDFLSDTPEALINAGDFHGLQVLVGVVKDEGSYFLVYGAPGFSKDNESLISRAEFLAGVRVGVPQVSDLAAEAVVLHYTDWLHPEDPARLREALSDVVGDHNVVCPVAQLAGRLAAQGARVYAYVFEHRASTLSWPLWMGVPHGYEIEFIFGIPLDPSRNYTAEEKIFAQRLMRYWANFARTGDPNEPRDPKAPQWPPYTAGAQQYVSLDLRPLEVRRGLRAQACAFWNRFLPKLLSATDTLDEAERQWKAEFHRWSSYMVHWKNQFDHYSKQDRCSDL
TEST DESCRIPTION: biochemical
Assay type: biochemical
EXPERIMENTAL PARAMETERS: mean ± SD, three independent experiments
MEASURE NAME: pIC50
Numbers only, as −log10 of the molar value.

Some entries whose results are on file:
{"columns": ["SMILES REPRESENTATION", "MEASURE NAME", "OBSERVED MEASUREMENT"],
 "data": [
  ["COc1cc(O)c(C(=O)/C=C/c2ccc(F)cc2)cc1I", "pIC50", 5.03],
  ["COc1ccc(-c2oc3cc(Cl)c(I)cc3c(=O)c2O)cc1", "pIC50", 4.84]
]}

Which measured pIC50 value corresponds to `COc1ccc(/C=C/C(=O)c2cc(I)c(Cl)cc2O)cc1` ?
4.93

---

TARGET SYSTEM: butyrylcholinesterase (BChE) (Homo sapiens)
TEST DESCRIPTION: biochemical
Type: biochemical
Please provide measured pIC50 for the entries that follow.
Numbers only, as −log10 of the molar value.

{"columns": ["MOLECULE", "TARGET SYSTEM", "MEASURE NAME", "OBSERVED MEASUREMENT"],
 "data": [
  ["O=C(/C=C/c1ccc(Cl)cc1)c1cc(I)c(Br)cc1O [Compound 2k]", "butyrylcholinesterase (BChE) (Homo sapiens)", "pIC50", 4.98],
  ["O=C(/C=C/c1ccc(F)cc1)c1cc(I)c(F)cc1O [Compound 2b]", "butyrylcholinesterase (BChE) (Homo sapiens)", "pIC50", 4.70],
  ["O=c1c(O)c(-c2ccccc2)oc2cc(Br)c(I)cc12 [Compound 3i]", "butyrylcholinesterase (BChE) (Homo sapiens)", "pIC50", 5.24],
  ["COc1cc2oc(-c3ccccc3)c(O)c(=O)c2cc1I [Compound 3m]", "butyrylcholinesterase (BChE) (Homo sapiens)", "pIC50", 4.98],
  ["COc1cc2oc(-c3ccc(Cl)cc3)c(O)c(=O)c2cc1I [Compound 3o]", "butyrylcholinesterase (BChE) (Homo sapiens)", "pIC50", 4.86],
  ["COc1cc2oc(-c3ccc(F)cc3)c(O)c(=O)c2cc1I [Compound 3n]", "butyrylcholinesterase (BChE) (Homo sapiens)", "pIC50", 5.10]
]}

Return reported pIC50 values for all items listed beneath this line.
1. O=c1c(O)c(-c2ccccc2)oc2cc(F)c(I)cc12 [Compound 3a]
2. O=C(/C=C/c1ccccc1)c1cc(I)c(Cl)cc1O [Compound 2e]
3. O=c1c(O)c(-c2ccccc2)oc2cc(Cl)c(I)cc12 [Compound 3e]

1: 4.57; 2: 4.60; 3: 5.18

---

TARGET SYSTEM: acetylcholinesterase (AChE) (Homo sapiens)
TEST DESCRIPTION: biochemical
Type: biochemical
Please provide measured IC50 for the entries that follow.
Numbers only, in µM.

Some entries whose results are on file:
{"columns": ["COMPOUND", "MEASURE NAME", "MEASUREMENT UNIT", "OBSERVED MEASUREMENT"],
 "data": [
  ["O=C(/C=C/c1ccc(F)cc1)c1cc(I)c(F)cc1O [Compound 2b]", "IC50", "µM", 16.6],
  ["O=C(/C=C/c1ccccc1)c1cc(I)c(Br)cc1O [Compound 2i]", "IC50", "µM", 58.1]
]}

Which measured IC50 value corresponds to O=c1c(O)c(-c2ccccc2)oc2cc(F)c(I)cc12 [Compound 3a] ?
29.7

---

TARGET SYSTEM: butyrylcholinesterase (BChE) (Homo sapiens)
TEST DESCRIPTION: biochemical
Type: biochemical
MEASURE NAME: SI AChE/BChE
One number for each entry.

{"columns": ["SMILES REPRESENTATION", "SI AChE/BChE"],
 "data": [
  ["O=c1c(O)c(-c2ccccc2)oc2cc(Cl)c(I)cc12", 7.21],
  ["COc1cc(O)c(C(=O)/C=C/c2ccc(Cl)cc2)cc1I", 0.95],
  ["O=c1c(O)c(-c2ccc(Cl)cc2)oc2cc(F)c(I)cc12", 0.09]
]}

# ---- query molecule ----
Which measured SI AChE/BChE value corresponds to `O=C(/C=C/c1ccc(F)cc1)c1cc(I)c(Cl)cc1O` ?
0.54

---

Please provide measured IC50 for the entries that follow.
TARGET SYSTEM: acetylcholinesterase (AChE) (Homo sapiens)
TEST DESCRIPTION: biochemical
Assay type: biochemical
EXPERIMENTAL PARAMETERS: mean ± SD, three independent experiments
One number for each entry, in µM.

Some entries whose results are on file:
{"columns": ["SMILES REPRESENTATION", "IC50 / µM"],
 "data": [
  ["COc1cc(O)c(C(=O)/C=C/c2ccc(Cl)cc2)cc1I", 11.1],
  ["O=C(/C=C/c1ccc(Cl)cc1)c1cc(I)c(F)cc1O", 10.5],
  ["COc1cc(O)c(C(=O)/C=C/c2ccccc2)cc1I", 10]
]}

Return reported IC50 values for all items listed beneath this line.
1. COc1ccc(/C=C/C(=O)c2cc(I)c(OC)cc2O)cc1
2. O=C(/C=C/c1ccccc1)c1cc(I)c(F)cc1O
3. O=C(/C=C/c1ccc(F)cc1)c1cc(I)c(Cl)cc1O
4. COc1ccc(-c2oc3cc(OC)c(I)cc3c(=O)c2O)cc1
5. O=c1c(O)c(-c2ccc(F)cc2)oc2cc(F)c(I)cc12
6. O=c1c(O)c(-c2ccc(Cl)cc2)oc2cc(F)c(I)cc12
7. O=C(/C=C/c1ccc(F)cc1)c1cc(I)c(Br)cc1O

1: 11; 2: 38.8; 3: 9.57; 4: 7.19; 5: 3.23; 6: 3.45; 7: 11

---

TARGET SYSTEM: acetylcholinesterase (AChE) (Homo sapiens)
TEST DESCRIPTION: biochemical
Type: biochemical
Respond with fulfilled for SI BChE/AChE values of 0.9 and above, not fulfilled for values below.

{"columns": ["SMILES REPRESENTATION", "ASSIGNED CATEGORY"],
 "data": [
  ["COc1cc(O)c(C(=O)/C=C/c2ccc(Cl)cc2)cc1I", "fulfilled"],
  ["COc1cc(O)c(C(=O)/C=C/c2ccccc2)cc1I", "fulfilled"],
  ["O=c1c(O)c(-c2ccccc2)oc2cc(Br)c(I)cc12", "not fulfilled"]
]}

Does the compound `O=C(/C=C/c1ccc(Cl)cc1)c1cc(I)c(F)cc1O` have recorded SI BChE/AChE that is 0.9 or more?
fulfilled

---

TARGET SYSTEM: butyrylcholinesterase (BChE) (Homo sapiens, UniProt P06276)
Sequence (P06276 29-602): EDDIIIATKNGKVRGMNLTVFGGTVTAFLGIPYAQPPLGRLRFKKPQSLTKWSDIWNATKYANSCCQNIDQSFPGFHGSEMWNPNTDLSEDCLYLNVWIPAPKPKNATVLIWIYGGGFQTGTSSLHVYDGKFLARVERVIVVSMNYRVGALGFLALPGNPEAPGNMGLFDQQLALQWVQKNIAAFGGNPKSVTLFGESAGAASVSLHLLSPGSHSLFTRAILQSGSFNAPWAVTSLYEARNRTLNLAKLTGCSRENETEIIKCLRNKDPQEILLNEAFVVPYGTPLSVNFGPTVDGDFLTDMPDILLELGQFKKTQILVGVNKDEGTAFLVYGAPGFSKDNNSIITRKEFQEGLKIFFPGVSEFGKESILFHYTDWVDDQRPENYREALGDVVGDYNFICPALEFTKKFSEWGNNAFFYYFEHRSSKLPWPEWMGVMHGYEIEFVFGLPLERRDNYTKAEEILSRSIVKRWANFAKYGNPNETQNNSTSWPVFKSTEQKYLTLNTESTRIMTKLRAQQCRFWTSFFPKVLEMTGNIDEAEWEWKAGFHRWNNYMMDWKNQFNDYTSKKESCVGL
TEST DESCRIPTION: biochemical
Type: biochemical
So basically, if SI AChE/BChE comes in under 2 it's Criterion met, and if it's 2 or more it's Criterion not met.

Solved entries:
{"columns": ["SMILES REPRESENTATION", "ASSIGNED CATEGORY"],
 "data": [
  ["O=c1c(O)c(-c2ccc(Cl)cc2)oc2cc(Br)c(I)cc12", "Criterion not met"],
  ["COc1cc2oc(-c3ccc(Cl)cc3)c(O)c(=O)c2cc1I", "Criterion not met"],
  ["O=c1c(O)c(-c2ccc(F)cc2)oc2cc(Cl)c(I)cc12", "Criterion not met"]
]}

hey, is SI AChE/BChE for `COc1ccc(-c2oc3cc(OC)c(I)cc3c(=O)c2O)cc1` lower than 2 or not?
Criterion not met

hey, is SI AChE/BChE for `COc1ccc(/C=C/C(=O)c2cc(I)c(OC)cc2O)cc1` lower than 2 or not?
Criterion not met

hey, is SI AChE/BChE for `COc1cc(O)c(C(=O)/C=C/c2ccccc2)cc1I` lower than 2 or not?
Criterion met

hey, is SI AChE/BChE for `O=C(/C=C/c1ccc(F)cc1)c1cc(I)c(F)cc1O` lower than 2 or not?
Criterion met

hey, is SI AChE/BChE for `O=c1c(O)c(-c2ccc(F)cc2)oc2cc(F)c(I)cc12` lower than 2 or not?
Criterion met

hey, is SI AChE/BChE for `O=C(/C=C/c1ccc(Cl)cc1)c1cc(I)c(Br)cc1O` lower than 2 or not?
Criterion met

hey, is SI AChE/BChE for `O=c1c(O)c(-c2ccc(Cl)cc2)oc2cc(Cl)c(I)cc12` lower than 2 or not?
Criterion not met

---

TARGET SYSTEM: butyrylcholinesterase (BChE) (Homo sapiens)
TEST DESCRIPTION: biochemical
Type: biochemical
Please provide measured SI AChE/BChE for the entries that follow.
Numbers only.

{"columns": ["SMILES REPRESENTATION", "OBSERVED MEASUREMENT"],
 "data": [
  ["COc1ccc(/C=C/C(=O)c2cc(I)c(Cl)cc2O)cc1", 2.81],
  ["COc1cc(O)c(C(=O)/C=C/c2ccc(F)cc2)cc1I", 1.59],
  ["COc1ccc(-c2oc3cc(Cl)c(I)cc3c(=O)c2O)cc1", 2.51],
  ["O=C(/C=C/c1ccc(Cl)cc1)c1cc(I)c(F)cc1O", 0.72],
  ["O=C(/C=C/c1ccccc1)c1cc(I)c(F)cc1O", 1.38]
]}

Return reported SI AChE/BChE values for all items listed beneath this line.
1. COc1ccc(/C=C/C(=O)c2cc(I)c(F)cc2O)cc1
2. COc1ccc(-c2oc3cc(F)c(I)cc3c(=O)c2O)cc1
3. O=c1c(O)c(-c2ccccc2)oc2cc(Br)c(I)cc12
4. O=c1c(O)c(-c2ccccc2)oc2cc(F)c(I)cc12
5. COc1cc2oc(-c3ccc(F)cc3)c(O)c(=O)c2cc1I

1. 1.29
2. 1.98
3. 1.73
4. 1.10
5. 0.76
